Test system: GSTP1
experiment_notes: Western blot to detect GSTP1 protein in LNCaP cells
Type: cell-based, human
assay_conditions: LNCaP cells exposed 24 hrs
parameter: expression of GSTP1 (Western blot)

O=S(=O)(O)c1ccc(N=C=S)cc1 [SPITC, 4-sulfophenylisothiocyanate] :: effectively induce
C=CCN=C=S [AITC, allyl isothiocyanate] :: effectively induce
S=C=NCc1ccccc1 [BITC, benzyl isothiocyanate] :: effectively induce
CC(=O)NC(CSC(=S)NCCc1ccccc1)C(=O)O (stereo not shown) :: effectively induce

###

In this section we review reported Percent of Cell Survival (T/C %) values for a set of molecules.
Test system: human prostate cancer cell line LNCaP
experiment_notes: MTT and SRB cell growth assay, LNCaP
Format: cell-based
assay_conditions: 0.6250 μM, LNCaP
Write the value in % as a bare number.

Guide cases for Percent of Cell Survival (T/C %), answers given:
S=C=NCc1ccccc1 [BITC, benzyl isothiocyanate] :: 71.25
O=S(=O)(O)c1ccc(N=C=S)cc1 [SPITC, 4-sulfophenylisothiocyanate] :: 98.26
S=C=NCCc1ccccc1 [PEITC, phenethyl isothiocyanate] :: 82.25

We next turn to a different molecule, shown below.
API: value(readout= Percent of Cell Survival (T/C %), system= human prostate cancer cell line LNCaP, query= C=CCN=C=S [AITC, allyl isothiocyanate] )
97.10
